Test: HUVEC growth inhibition – cell-based, human, primary screen (AID 575);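 note: 100% = median of untreated cell wells with 0.1% DMSO on each plate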
Conditions: HUVEC proliferation, CellTiter-Glo luminescence, 72 h; at 10 µM; stronger effect = lower value
PROPERTY MEASURED: viability (%)
Unit % implied. Number only.

Solved cases below.
CCOC(=O)c1cc2ccc(OC)c(OC)c2c(=O)s1 :: 83.9
CCOc1ccccc1Nc1nc2ccccc2[nH]1 :: 92.7
COCCCn1c(=N)c(C(=O)NCC2CCCO2)cc2c(=O)n3cccc(C)c3nc21 (stereo unspecified) :: 93
Nc1nc(NCc2ccco2)nn1-c1ccccc1 :: 98
COc1ccc(-c2ccc(-c3noc(-c4cccs4)n3)c(OC)n2)cc1 :: 98.8

Entry COC(=O)CNc1nc(C2CC2)nc2c1nnn2Cc1ccccc1Cl has what viability?
84.9

* * *

Experiment: HUVEC growth inhibition – cell-based, human, primary screen (AID 575);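 note: 100% = median of untreated cell wells with 0.1% DMSO on each plate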
Details: HUVEC proliferation, CellTiter-Glo luminescence, 72 h; at 10 µM; stronger effect = lower value
PROPERTY MEASURED: viability (%)
Report the figure in % without appending any unit label.

Consider the compound shown here: O=C(CSc1nc2ccccc2c(=O)n1Cc1ccco1)NCc1ccccc1 What is its recorded viability?
82.6

For CO/C([O-])=N/c1c[n+](-c2ccc(C)cc2)no1 , what is its reported viability?
109

What does the data say about its viability? Entry: CCN1CCN(C(=O)c2cn(CCOC)c(=O)c3c2c2ccccc2n3C)CC1
106

Please report the recorded viability for CCCOc1ccc2nc(NC(=O)OC)[nH]c2c1 .
37.3

Quick one: viability for COc1cccc(N2C(=O)N(c3ccccc3Cl)C3CS(=O)(=O)CC32)c1 (stereo unspecified) ?
106

Record request: viability value, item Cc1cc(Oc2ccc(Cl)cc2)nc(-c2ccccc2O)n1
84.7

# query: viability of entry CCOc1ccccc1N(C(=O)c1ccco1)C(C(=O)NC1CCCC1)c1cccnc1 (stereo unspecified)
101

Item under review: CC1Cc2ccccc2N1Cc1cc(=O)n2ccsc2n1 (stereo unspecified) . Reported viability?
80.4

For Cc1cc(C(F)(F)F)nc(NCc2cccnc2)n1 , what is its reported viability?
96.4

Look up viability: CN1[C@@H]2CC(OC(=O)[C@H](CO)c3ccccc3)C[C@H]1[C@@H]1O[C@@H]12 (stereo partly specified)
96.7

Sample O=C(CN(c1ccc(F)cc1)S(=O)(=O)c1ccc2c(c1)OCCO2)Nc1cccnc1 — what was its viability?
89.5

* * *

Assay: reversal of MRP1-mediated doxorubicin resistance, pilot screen, H69AR cells, doxorubicin co-treatment (AID 601)
Settings: H69AR cells + 2 uM doxorubicin, CellTiter-Glo, 72 h; measured here: viability with 2 uM doxorubicin; at 10 µM; stronger effect = lower value
Reported viability by item:
Give the value in % but do not write % after it.

Worked cases, viability given:
CCCCCC(=O)N1CC2(C)CN(C(=O)CCCCC)CC(C)(C1)C2=O :: 83.4
Cc1cc(C)nc(N2CCC(C(=O)Nc3ccc(Oc4ccccc4)cc3)CC2)n1 :: 88.2

Next item in the queue.
Give its viability value. Item: O=C(c1cc2nc(-c3ccco3)cc(C(F)(F)F)n2n1)N1CCN(c2ccccn2)CC1
66.1

* * *

# Lookup of reported viability keyed by entry
Assay: reversal of MRP1-mediated doxorubicin resistance, pilot screen, H69AR cells, doxorubicin co-treatment (AID 601)
Details: H69AR cells, CellTiter-Glo, 72 h; compound alone cytotoxicity; at 10 µM
Record the value in %, omitting the unit from your answer.

Look over these answered cases.
Cc1ccc(-c2nnc(SC(C)C#N)n2N)cc1 (centres undefined) :: 92.3
Cc1cnc(C(=O)NCCc2ccc(S(=O)(=O)NC(=O)NC3CCCCC3)cc2)cn1 :: 89.3
COc1ccc(S(=O)(=O)N2CCC(C(=O)NCc3ccco3)CC2)cc1 :: 86.6

viability for O=C(CSc1nc2ccccc2o1)NC(=O)NCc1ccco1 ?
89.3

Suppose we examine the compound CCOC(=O)c1c(C)oc2c1c1c(c3ccccc32)OCN(Cc2cccnc2)C1 ; what viability value has been reported?
51.6

I have this compound here, Cc1cccc(NC(=O)c2cc(NC(=O)c3ccco3)ccc2N2CCCCC2)c1 , and I need its recorded viability.
65.9
